Data provenance is patent US20210371530A1.

target: T1, polyhistidine-tagged human PD-1 (hPD1-His, 98AFK) (human, UniProt Q15116 25-167, limits assumed); experiment: SPR solution affinity; reference Humanized 08A IgG4 S61N (98AIO)
T1 construct: Lot 98AFK; also called human PD1-His; Human PD-1-His; not shown: polyhistidine tag
T1 sequence (Q15116 25-167 limits assumed): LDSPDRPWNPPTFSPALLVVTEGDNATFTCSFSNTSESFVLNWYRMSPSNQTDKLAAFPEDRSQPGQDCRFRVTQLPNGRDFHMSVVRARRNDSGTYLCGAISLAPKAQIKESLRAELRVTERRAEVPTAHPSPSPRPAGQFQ
experimental endpoint: KD (REF) / KD (ratio)
Could you give me the number in ratio? Just the number is fine.

// query Reported KD (REF) / KD, binder Humanized 08A IgG4 S61N G56A (antibody, V domains shown, IgG4 S228P / kappa; also called 51AQK; 08A/HuPD1A-11 S61N VH G56A IgG4 S228P / Kappa) VH: EVQLVQSGAEVKKPGASVKVSCKASGYTFTSYYLYWVRQAPGQGLEWIGGVNPSNAGTNFNEKFKSRVTLTVDTSISTAYMELSRLRSDDTAVYYCTRRDSNYDGGFDYWGQGTTVTVSS VL: DIVMTQTPLSLSVTPGQPASISCRASKSVSTSGFSYLHWYLQKPGQPPQLLIFLASNLESGVPDRFSGSGSGTDFTLKISRVEAEDVGVYYCQHSWELPLTFGQGTKLEIKR : ____
// result 1

// query Reported KD (REF) / KD, binder Humanized 08A IgG4 G56A (antibody, V domains shown, IgG4 S228P / kappa; also called 89AVZ; 08A/HuPD1A-11 G56A IgG4 S228P / Kappa) VH: EVQLVQSGAEVKKPGASVKVSCKASGYTFTSYYLYWVRQAPGQGLEWIGGVNPSNAGTNFSEKFKSRVTLTVDTSISTAYMELSRLRSDDTAVYYCTRRDSNYDGGFDYWGQGTTVTVSS VL: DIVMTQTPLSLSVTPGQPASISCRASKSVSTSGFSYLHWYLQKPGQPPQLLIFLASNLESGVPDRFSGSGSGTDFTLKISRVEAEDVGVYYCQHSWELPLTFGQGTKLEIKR : ____
// result 0.6

// query Reported KD (REF) / KD, binder Humanized 08A IgG4 Fab 098 G56A (antibody, V domains shown, IgG4 S228P / kappa; also called 90AVZ) VH: EVQLVQSGAEVKKPGASVKVSCKASGYTFTSYYLYWVRQAPGQGLEWIGGVNPSNAGTNFSEKFKSRVTLTVDTSISTAYMELSRLRSDDTAVYYCTRRLSHYDGGFDYWGQGTTVTVSS VL: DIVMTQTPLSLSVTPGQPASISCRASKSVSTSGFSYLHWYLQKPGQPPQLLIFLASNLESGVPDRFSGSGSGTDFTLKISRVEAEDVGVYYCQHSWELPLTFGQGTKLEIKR : ____
// result 1.7
